Biological target: T1, TTF1 (thyroid transcription factor 1) (Ciona intestinalis, UniProt O96738 O96738:1-477)
T1 sequence: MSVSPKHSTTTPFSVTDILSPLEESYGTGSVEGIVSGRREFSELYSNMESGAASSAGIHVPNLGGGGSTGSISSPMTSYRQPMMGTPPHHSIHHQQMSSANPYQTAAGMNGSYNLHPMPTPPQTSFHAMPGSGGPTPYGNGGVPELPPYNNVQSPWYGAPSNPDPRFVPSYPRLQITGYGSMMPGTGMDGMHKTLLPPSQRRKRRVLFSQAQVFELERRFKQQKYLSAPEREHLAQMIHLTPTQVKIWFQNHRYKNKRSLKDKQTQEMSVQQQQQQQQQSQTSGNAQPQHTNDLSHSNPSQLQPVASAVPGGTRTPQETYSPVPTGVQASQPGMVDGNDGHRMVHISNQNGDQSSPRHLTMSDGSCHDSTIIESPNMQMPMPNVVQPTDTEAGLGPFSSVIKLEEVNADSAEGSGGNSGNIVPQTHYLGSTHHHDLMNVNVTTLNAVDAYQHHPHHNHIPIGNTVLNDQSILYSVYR
Test: SPR; kinetic global fit 1:1; steady-state Kd 5.14 nM; HBS-P pH 7.5, 150 mM NaCl
Conditions: tags: N-terminal His6 plus factor Xa site (pNHis vector), E. coli; label: biotin
OBSERVED_PROPERTY: Kd (nM)
Give bare numbers, in nM.

Quote Kd reported for TTF1 Aptamer A (ssDNA) DNA: GGTATTGAGGGTCGCATCTCAAAAGGGGTGATTGCTTGCACAATGACAGGGTAGGACAGATGGCTCTAACTCTCCTCT please. 3.36
